# reported OD450; entries follow
Molecular target: T1, human MSLN-R3 protein (human, UniProt Q13421 487-598)
T1 construct: also called hMSLN-R3
T1 sequence (Q13421 495-606, form in doubt): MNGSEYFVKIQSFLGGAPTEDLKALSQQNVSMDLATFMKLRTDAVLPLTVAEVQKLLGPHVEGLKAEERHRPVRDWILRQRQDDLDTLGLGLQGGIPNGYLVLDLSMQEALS
Assay: ELISA on coated antigen, antibody 0.1 nM

# binder, OD450, OD450
rows = [
    ("Tab111 (scFv, not shown: small tags and cut ends, also called YP218 VL-(G4S)3-VH-his antibody; positive control) scFv: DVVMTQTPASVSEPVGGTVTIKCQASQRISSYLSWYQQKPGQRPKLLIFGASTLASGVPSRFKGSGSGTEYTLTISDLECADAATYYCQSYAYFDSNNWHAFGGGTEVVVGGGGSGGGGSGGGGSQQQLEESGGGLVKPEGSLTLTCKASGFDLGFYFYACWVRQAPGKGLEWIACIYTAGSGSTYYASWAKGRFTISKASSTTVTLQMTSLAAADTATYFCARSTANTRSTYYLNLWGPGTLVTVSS", 0.09),
    ("F7.44.20-H14 (scFv, not shown: small tags and cut ends, also called S009-F7.44.20 humanized antibody VH2a + VL2) scFv: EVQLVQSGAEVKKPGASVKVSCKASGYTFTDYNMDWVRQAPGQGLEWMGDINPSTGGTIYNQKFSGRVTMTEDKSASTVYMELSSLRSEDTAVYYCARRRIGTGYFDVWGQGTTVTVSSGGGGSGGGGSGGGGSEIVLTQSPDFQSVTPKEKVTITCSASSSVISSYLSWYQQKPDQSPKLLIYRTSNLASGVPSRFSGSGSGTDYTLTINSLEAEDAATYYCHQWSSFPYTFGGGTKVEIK", 0.1),
    ("F7.44.20-H15 (scFv, not shown: small tags and cut ends, also called S009-F7.44.20 humanized antibody VH2a + VL3) scFv: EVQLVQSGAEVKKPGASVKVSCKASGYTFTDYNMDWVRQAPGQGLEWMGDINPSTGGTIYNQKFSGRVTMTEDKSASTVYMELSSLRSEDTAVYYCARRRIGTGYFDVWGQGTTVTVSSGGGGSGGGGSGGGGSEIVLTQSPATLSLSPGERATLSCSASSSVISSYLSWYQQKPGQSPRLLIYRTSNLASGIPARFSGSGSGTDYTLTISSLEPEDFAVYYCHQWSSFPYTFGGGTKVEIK", 0.11),
    ("F7.44.20-H4 (scFv, not shown: small tags and cut ends, also called S009-F7.44.20 humanized antibody VH1 + VL4) scFv: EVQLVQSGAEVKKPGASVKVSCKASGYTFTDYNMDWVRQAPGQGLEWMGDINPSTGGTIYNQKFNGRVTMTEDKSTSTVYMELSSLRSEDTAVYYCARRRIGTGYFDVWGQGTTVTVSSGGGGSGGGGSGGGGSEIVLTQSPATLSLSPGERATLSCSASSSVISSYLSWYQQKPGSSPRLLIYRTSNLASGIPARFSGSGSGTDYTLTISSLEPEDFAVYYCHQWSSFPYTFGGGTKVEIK", 0.1),
]

Values from patent US20250250357A1
